Parameter Oilseed Rape plant response rating: see the listing below.
- Tested on: oilseed rape
- assay: Test C preemergence
- Type: in vivo, Brassica napus
- experimental_conditions: 125 g ai/ha, preemergence; scale 0 (no effect) to 100 (complete control)
Enter a number only.

Prompt line: Request the reported Oilseed Rape plant response rating associated with NC(=S)c1cccc(Oc2ncc(Cl)cn2)c1-n1cc(Cl)cn1 [Compound 292]
Response line: 98

Prompt line: Item N#Cc1cnn(-c2c(Oc3ncc(F)cn3)cccc2C(F)F)c1 [Compound 240] has what recorded Oilseed Rape plant response rating?
Response line: 100

Prompt line: What value of Oilseed Rape plant response rating has been recorded for this entry: FC(F)Oc1cnn(-c2c(Cl)cccc2Oc2ncc(Cl)cn2)c1 [Compound 258]
Response line: 100

Prompt line: Look up Oilseed Rape plant response rating: N#Cc1cccc(Oc2ncc(Cl)cn2)c1-n1cc(Cl)cn1 [Compound 72]
Response line: 100

Prompt line: Quick one: Oilseed Rape plant response rating for N#Cc1cccc(Oc2ncc(Cl)cn2)c1-n1cc(OC(F)F)cn1 [Compound 97] ?
Response line: 90

Prompt line: Given the compound FC(F)c1cccc(Oc2ncc(Cl)cn2)c1-n1cc(C(F)(F)F)cn1 [Compound 170] , what is its reported Oilseed Rape plant response rating?
Response line: 95

----------
- Test system: giant foxtail
- assay: Test A postemergence
- Type: in vivo, Setaria faberii
- experimental_conditions: 125 g ai/ha, 0 to 100 scale, 0 no effect, 100 complete control
# note: boundary value 10 maps to not satisfied; Plant response rating, Foxtail, Giant below it maps to satisfied

Prompt line: Record FC(F)Oc1cnn(-c2c(Cl)cccc2Oc2ncc(Cl)cn2)c1 : is its Plant response rating, Foxtail, Giant strictly below 10?
Response line: not satisfied

Prompt line: Criterion: Plant response rating, Foxtail, Giant strictly below 10. Is it met by C[Si](C)(C)C#Cc1cccc(Oc2ncc(Cl)cn2)c1-n1cc(Br)cn1 ?
Response line: not satisfied

Prompt line: Please let me know if NN=Cc1cccc(Oc2ncc(Cl)cn2)c1-n1cc(Cl)cn1 shows Plant response rating, Foxtail, Giant below 10.
Response line: satisfied

Prompt line: Bench note: check whether Cc1cn(-c2c(C#N)cccc2Oc2ncc(Cl)cn2)cn1 shows Plant response rating, Foxtail, Giant below 10
Response line: satisfied

Prompt line: I wonder whether Clc1cnc(Oc2cccc(-c3cnoc3)c2-n2cc(Br)cn2)nc1 has Plant response rating, Foxtail, Giant below 10. Can you tell?
Response line: satisfied

Prompt line: Determine if FCc1cccc(Oc2ncc(Br)cn2)c1-n1cc(Cl)cn1 shows Plant response rating, Foxtail, Giant strictly lower than 10.
Response line: not satisfied

Prompt line: Strictly below 10: is that where Plant response rating, Foxtail, Giant of N#Cc1cnn(-c2c(Oc3ncc(F)cn3)cccc2C(F)F)c1 sits?
Response line: not satisfied

Prompt line: Field: below-cutoff. Rule: recorded Plant response rating, Foxtail, Giant strictly less than 10. Subject: CC1(C)OB(c2cnn(-c3c(C#N)cccc3Oc3ncc(Cl)cn3)c2)OC1(C)C
Response line: satisfied

Prompt line: In the record for Fc1cccc(Oc2ncc(Cl)cn2)c1-n1cc(OC(F)F)cn1 , is Plant response rating, Foxtail, Giant less than 10?
Response line: not satisfied

----------
- Test system: sedge, umbrella
- assay: Test B flooded paddy test
- Type: in vivo, Cyperus difformis
- experimental_conditions: Flood, 250 g ai/ha; 0 to 100 scale where 0 is no effect and 100 is complete control
- Experimental: Plant species in the flooded paddy test selected from rice (Oryza sativa), sedge, umbrella (small-flower umbrella sedge, Cyperus difformis), (Heteranthera limosa), and barnyardgrass (Echinochloa crus-galli) were grown to the 2-leaf stage for testing. […] Treated plants and controls were maintained in a greenhouse for 13 to 15 days, after which time all species were compared to controls and visually evaluated. […]
Classify as follows. Reported Plant response rating, Sedge, Umbrella greater than or equal to 60: condition met. Reported Plant response rating, Sedge, Umbrella below: condition not met.

FCc1cccc(Oc2ncc(F)cn2)c1-n1cc(I)cn1
condition not met
FCCc1cn(-c2c(F)cccc2Oc2ncc(Cl)cn2)nn1
condition met
Clc1cnc(Oc2cccc(-c3cnoc3)c2-n2cc(Br)cn2)nc1
condition not met
Cc1cnn(-c2c(C#N)cccc2Oc2ncc(Cl)cn2)c1
condition not met
O=Cc1cn(-c2ccccc2Oc2ncc(Cl)cn2)nn1
condition not met

Prompt line: Please tell me: is the compound Clc1cnc(Oc2cccc(Br)c2-n2cc(Cl)cn2)nc1 at or over 60 in terms of Plant response rating, Sedge, Umbrella?
Response line: condition not met

Prompt line: Given N#Cc1cccc(Oc2ncc(Br)cn2)c1-n1cc(Br)cn1 , state whether its Plant response rating, Sedge, Umbrella is at least 60.
Response line: condition met

Prompt line: Form field: Plant response rating, Sedge, Umbrella at least 60? Entry: N#Cc1cn(-c2c(C#N)cccc2Oc2ncc(Cl)cn2)nn1
Response line: condition met

Prompt line: State whether the measured Plant response rating, Sedge, Umbrella reaches 60, counting equality as reaching it, for Clc1cnc(Oc2cc(Cl)ccc2-n2cccn2)nc1
Response line: condition not met
